Origin of measurements: patent US5840684A

Test system: vancomycin-resistant enterococci
experimental.details: broth micro-dilution, mean geometric MIC
Type: cell-based, Enterococcus faecium and Enterococcus faecalis
run.conditions: enterococci, 24-hour incubation
Reported mean geometric MIC, Vancomycin Resistant Strains is given for each of the following molecules.
experimental.endpoint: mean geometric MIC, Vancomycin Resistant Strains

- molecule: "CNC(CC(C)C)C(=O)NC1C(=O)NC(CC(N)=O)C(=O)NC2C(=O)NC3C(=O)NC(C(=O)NC(C(=O)O)c4cc(O)cc(O)c4-c4cc3ccc4O)C(OC3CC(C)(N)C(O)C(C)O3)c3ccc(c(Cl)c3)Oc3cc2cc(c3OC2OC(CO)C(O)C(O)C2OC2CC(C)(NCCc3ccc(Oc4ccccc4)cc3)C(O)C(C)O2)Oc2ccc(cc2Cl)C1O (centres unmarked) [Compound 63]"
  test.target: "vancomycin-resistant enterococci"
  reported.result: "54 mg/L"
- molecule: "CC(C)CC(C(=O)NC1C(=O)NC(CC(N)=O)C(=O)NC2C(=O)NC3C(=O)NC(C(=O)NC(C(=O)O)c4cc(O)cc(O)c4-c4cc3ccc4O)C(OC3CC(C)(N)C(O)C(C)O3)c3ccc(c(Cl)c3)Oc3cc2cc(c3OC2OC(CO)C(O)C(O)C2OC2CC(C)(NCc3ccc(Oc4ccccc4)cc3)C(O)C(C)O2)Oc2ccc(cc2Cl)C1O)N(C)Cc1ccc(Oc2ccccc2)cc1 (centres unmarked)"
  test.target: "vancomycin-resistant enterococci"
  reported.result: "2.4 mg/L"
